Tested on: CCRF-CEM
Assay: Ratio of IC50 for vinblastine-resistant CEM/VLB100 cells over IC50 for drug-sensitive CCRF-CEM cells
Format: functional, Homo sapiens

{"columns": ["smiles-text", "Ratio IC50"],
 "data": [
  ["CCCCCCC[C@@H]1CC(=O)N[C@@H](C(C)C)C(=O)N[C@@H]([C@@H](O)C(C)C)C(=O)N[C@@H](C)C(=O)N[C@H]([C@@H](O)C(C)C)C(=O)N[C@@H](CCC(N)=O)C(=O)N(C)[C@@H]([C@@H](C)CC)C(=O)N[C@H]([C@@H](O)C(N)=O)C(=O)N[C@@H]([C@@H](C)O)C(=O)N2CCC[C@H]2C(=O)N[C@H](CC(C)C)C(=O)N[C@@H]([C@@H](C)O)C(=O)N1", 0.9],
  ["CCCCCCC[C@@H]1CC(=O)N[C@@H](C(C)C)C(=O)N[C@@H]([C@@H](O)C(C)C)C(=O)N[C@@H](C)C(=O)N[C@H]([C@@H](O)C(C)C)C(=O)N[C@@H](CCC(N)=O)C(=O)N(C)[C@@H]([C@@H](C)CC)C(=O)N[C@H]([C@@H](O)C(N)=O)C(=O)N[C@@H]([C@@H](C)O)C(=O)N2C[C@H](O)C[C@H]2C(=O)N[C@H](CC(C)C)C(=O)N[C@@H]([C@@H](C)O)C(=O)N1", 0.9],
  ["CC[C@]1(O)C[C@@H]2CN(CCc3c([nH]c4ccccc34)[C@@](C(=O)OC)(c3cc4c(cc3OC)N(C)[C@H]3[C@@](O)(C(=O)OC)[C@H](OC(C)=O)[C@]5(CC)C=CCN6CC[C@]43[C@@H]65)C2)C1", 89],
  ["COc1cccc2c1C(=O)c1c(O)c3c(c(O)c1C2=O)C[C@@](O)(C(=O)CO)C[C@@H]3O[C@H]1C[C@H](N)[C@H](O)[C@H](C)O1", 62],
  ["CCCCCCC[C@@H]1CC(=O)N[C@@H](C(C)C)C(=O)N[C@H]([C@@H](O)C(C)C)C(=O)N[C@@H](C)C(=O)N[C@H](CC(C)C)C(=O)N[C@@H](CCC(N)=O)C(=O)N(C)[C@@H]([C@@H](C)CC)C(=O)N[C@H]([C@@H](O)C(N)=O)C(=O)N[C@@H]([C@@H](C)O)C(=O)N2CCC[C@H]2C(=O)N[C@H](CC(C)C)C(=O)N[C@@H]([C@@H](C)O)C(=O)N1", 0.8]
]}

###

Assay: Cytotoxicity against teniposide-resistant CEM/VM1 cells after 72 hrs
Assay type: cell-based
Conditions: Homo sapiens, CEM-VM1, 72 h

{"columns": ["smiles-text", "IC50"],
 "data": [
  ["CCCCCCC[C@@H]1CC(=O)N[C@@H](C(C)C)C(=O)N[C@H]([C@@H](O)C(C)C)C(=O)N[C@@H](C)C(=O)N[C@H](CC(C)C)C(=O)N[C@@H](CCC(N)=O)C(=O)N(C)[C@@H]([C@@H](C)CC)C(=O)N[C@H]([C@@H](O)C(N)=O)C(=O)N[C@@H]([C@@H](C)O)C(=O)N2CCC[C@H]2C(=O)N[C@H](CC(C)C)C(=O)N[C@@H]([C@@H](C)O)C(=O)N1", "4140 nM"],
  ["CCCCCCC[C@@H]1CC(=O)N[C@@H](C(C)C)C(=O)N[C@@H]([C@@H](O)C(C)C)C(=O)N[C@@H](C)C(=O)N[C@H]([C@@H](O)C(C)C)C(=O)N[C@@H](CCC(N)=O)C(=O)N(C)[C@@H]([C@@H](C)CC)C(=O)N[C@H]([C@@H](O)C(N)=O)C(=O)N[C@@H]([C@@H](C)O)C(=O)N2C[C@H](O)C[C@H]2C(=O)N[C@H](CC(C)C)C(=O)N[C@@H]([C@@H](C)O)C(=O)N1", "1450 nM"],
  ["COc1cccc2c1C(=O)c1c(O)c3c(c(O)c1C2=O)C[C@@](O)(C(=O)CO)C[C@@H]3O[C@H]1C[C@H](N)[C@H](O)[C@H](C)O1", "550 nM"]
]}

###

Measured pIC50 of individual entries
Tested on: CCRF-CEM
Test: Cytotoxicity against drug-sensitive CCRF-CEM cells after 72 hrs
Format: cell-based
Conditions: Homo sapiens
pIC50: −log10 of the molar value.

{"columns": ["smiles-text", "pIC50"],
 "data": [
  ["CCCCCCC[C@@H]1CC(=O)N[C@@H](C(C)C)C(=O)N[C@H]([C@@H](O)C(C)C)C(=O)N[C@@H](C)C(=O)N[C@H](CC(C)C)C(=O)N[C@@H](CCC(N)=O)C(=O)N(C)[C@@H]([C@@H](C)CC)C(=O)N[C@H]([C@@H](O)C(N)=O)C(=O)N[C@@H]([C@@H](C)O)C(=O)N2CCC[C@H]2C(=O)N[C@H](CC(C)C)C(=O)N[C@@H]([C@@H](C)O)C(=O)N1", 5.38],
  ["CCCCCCC[C@@H]1CC(=O)N[C@@H](C(C)C)C(=O)N[C@@H]([C@@H](O)C(C)C)C(=O)N[C@@H](C)C(=O)N[C@H]([C@@H](O)C(C)C)C(=O)N[C@@H](CCC(N)=O)C(=O)N(C)[C@@H]([C@@H](C)CC)C(=O)N[C@H]([C@@H](O)C(N)=O)C(=O)N[C@@H]([C@@H](C)O)C(=O)N2C[C@H](O)C[C@H]2C(=O)N[C@H](CC(C)C)C(=O)N[C@@H]([C@@H](C)O)C(=O)N1", 5.82]
]}
